Molecular target: Recombinant JAK3 (Homo sapiens, UniProt P52333)
Construct: purchased Carna Biosciences
Sequence (P52333 whole entry): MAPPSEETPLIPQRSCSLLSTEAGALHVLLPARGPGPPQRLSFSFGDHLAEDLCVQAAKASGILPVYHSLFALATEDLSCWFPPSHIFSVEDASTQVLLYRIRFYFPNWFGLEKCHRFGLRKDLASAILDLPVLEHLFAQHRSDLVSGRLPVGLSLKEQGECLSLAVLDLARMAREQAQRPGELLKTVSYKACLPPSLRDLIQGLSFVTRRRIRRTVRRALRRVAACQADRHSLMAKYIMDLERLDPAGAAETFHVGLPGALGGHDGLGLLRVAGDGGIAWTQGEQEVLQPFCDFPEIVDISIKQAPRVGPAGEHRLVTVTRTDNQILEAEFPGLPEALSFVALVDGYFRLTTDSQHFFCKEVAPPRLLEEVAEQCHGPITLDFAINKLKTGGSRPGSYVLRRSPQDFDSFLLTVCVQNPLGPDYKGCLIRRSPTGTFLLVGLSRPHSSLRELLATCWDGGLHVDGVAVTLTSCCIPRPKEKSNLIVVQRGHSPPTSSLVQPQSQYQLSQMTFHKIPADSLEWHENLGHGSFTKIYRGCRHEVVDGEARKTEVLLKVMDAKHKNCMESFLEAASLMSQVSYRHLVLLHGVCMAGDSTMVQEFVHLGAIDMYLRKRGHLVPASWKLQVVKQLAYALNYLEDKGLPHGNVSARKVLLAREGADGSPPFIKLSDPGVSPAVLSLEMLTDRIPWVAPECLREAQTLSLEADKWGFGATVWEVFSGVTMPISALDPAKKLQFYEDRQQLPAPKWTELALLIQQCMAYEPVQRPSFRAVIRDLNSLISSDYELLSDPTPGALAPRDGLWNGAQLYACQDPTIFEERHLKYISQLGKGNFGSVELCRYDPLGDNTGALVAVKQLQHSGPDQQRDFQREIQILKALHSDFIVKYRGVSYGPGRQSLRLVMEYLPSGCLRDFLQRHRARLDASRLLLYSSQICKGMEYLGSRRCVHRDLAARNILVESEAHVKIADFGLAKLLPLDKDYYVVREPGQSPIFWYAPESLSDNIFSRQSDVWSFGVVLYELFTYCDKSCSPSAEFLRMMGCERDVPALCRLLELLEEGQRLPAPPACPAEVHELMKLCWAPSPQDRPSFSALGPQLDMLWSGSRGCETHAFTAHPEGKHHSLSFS
Experiment: JAK biochemical assay (LANCE Ultra TR-FRET), JAK3
Settings: recombinant JAK3, TR-FRET; read-out: Biochemical Assay (μM) JAK3
Experimental: Recombinant JAK1, JAK2, JAK3 and TYK2 (Carna Biosciences) were used to develop biochemical assays in 50 mM HEPES pH 7.5, 1 mM EGTA, 10 mM MgCl2, 2 mM DTT and 0.01% Tween-20. […] The intensity of the light emission is proportional to the level of ULight substrate phosphorylation. Compounds which interfere with JAK enzyme activity show a lesser substrate phosphorylation and values are projected in terms of % inhibition in comparison to vehicle control.

{"COMPOUND": "O=S(=O)(CCC(c1ccc(-n2cc(-c3ccnc4[nH]cnc34)cn2)nc1)C(F)(F)F)CC1CC1 (stereo not shown)", "TARGET": "Recombinant JAK3 (Homo sapiens, UniProt P52333)", "IC50": "< 0.1 µM"}
{"COMPOUND": "CC(c1ccc(-n2cc(-c3ccnc4[nH]cnc34)cn2)nc1)S(C)(=O)=O (stereo not shown)", "TARGET": "Recombinant JAK3 (Homo sapiens, UniProt P52333)", "IC50": "> 0.1 µM"}
{"COMPOUND": "FC(F)(F)C(CNC1CC1)c1ccc(-n2cc(-c3ccnc4[nH]cnc34)cn2)nc1 (stereo not shown)", "TARGET": "Recombinant JAK3 (Homo sapiens, UniProt P52333)", "IC50": "< 0.1 µM"}
{"COMPOUND": "O=C(Nc1ccncc1)N1CCN(c2ccnc3[nH]c(=O)[nH]c23)CC1", "TARGET": "Recombinant JAK3 (Homo sapiens, UniProt P52333)", "IC50": "> 1 µM"}
{"COMPOUND": "CCN1CCC([C@@](O)(c2ccc(-n3cc(-c4ccnc5[nH]cnc45)cn3)nc2)C(F)(F)F)C1 (stereo partly shown)", "TARGET": "Recombinant JAK3 (Homo sapiens, UniProt P52333)", "IC50": "0.015 µM"}
{"COMPOUND": "OCCC(c1ccc(-n2cc(-c3ccnc4[nH]cnc34)cn2)nc1)C(F)(F)F (stereo not shown)", "TARGET": "Recombinant JAK3 (Homo sapiens, UniProt P52333)", "IC50": "< 0.1 µM"}
{"COMPOUND": "OC(c1cccc(-n2cc(-c3ccnc4[nH]cnc34)cn2)n1)C(F)(F)F (stereo not shown)", "TARGET": "Recombinant JAK3 (Homo sapiens, UniProt P52333)", "IC50": "> 0.05 µM"}
{"COMPOUND": "N#CC(c1ccc(-n2cc(-c3ccnc4[nH]cnc34)cn2)cc1)N1CCOCC1 (stereo not shown)", "TARGET": "Recombinant JAK3 (Homo sapiens, UniProt P52333)", "IC50": "> 1 µM"}
{"COMPOUND": "CC(C)N1CC(C(O)(c2ccc(-n3cc(-c4ccnc5[nH]cnc45)cn3)nc2)C(F)(F)F)C1 (stereo not shown)", "TARGET": "Recombinant JAK3 (Homo sapiens, UniProt P52333)", "IC50": "0.005 µM"}
{"COMPOUND": "FC(F)(F)C(c1ccc(-n2cc(-c3ccnc4[nH]cnc34)cn2)nc1)N1CCOCC1 (stereo not shown)", "TARGET": "Recombinant JAK3 (Homo sapiens, UniProt P52333)", "IC50": "> 0.5 µM"}

---

molecular target: Recombinant JAK1 (Homo sapiens); construct: purchased Carna Biosciences; test: JAK biochemical assay (LANCE Ultra TR-FRET), JAK1; conditions: recombinant JAK1, TR-FRET; read-out: Biochemical Assay (μM) JAK1
Sequence (P23458 whole entry): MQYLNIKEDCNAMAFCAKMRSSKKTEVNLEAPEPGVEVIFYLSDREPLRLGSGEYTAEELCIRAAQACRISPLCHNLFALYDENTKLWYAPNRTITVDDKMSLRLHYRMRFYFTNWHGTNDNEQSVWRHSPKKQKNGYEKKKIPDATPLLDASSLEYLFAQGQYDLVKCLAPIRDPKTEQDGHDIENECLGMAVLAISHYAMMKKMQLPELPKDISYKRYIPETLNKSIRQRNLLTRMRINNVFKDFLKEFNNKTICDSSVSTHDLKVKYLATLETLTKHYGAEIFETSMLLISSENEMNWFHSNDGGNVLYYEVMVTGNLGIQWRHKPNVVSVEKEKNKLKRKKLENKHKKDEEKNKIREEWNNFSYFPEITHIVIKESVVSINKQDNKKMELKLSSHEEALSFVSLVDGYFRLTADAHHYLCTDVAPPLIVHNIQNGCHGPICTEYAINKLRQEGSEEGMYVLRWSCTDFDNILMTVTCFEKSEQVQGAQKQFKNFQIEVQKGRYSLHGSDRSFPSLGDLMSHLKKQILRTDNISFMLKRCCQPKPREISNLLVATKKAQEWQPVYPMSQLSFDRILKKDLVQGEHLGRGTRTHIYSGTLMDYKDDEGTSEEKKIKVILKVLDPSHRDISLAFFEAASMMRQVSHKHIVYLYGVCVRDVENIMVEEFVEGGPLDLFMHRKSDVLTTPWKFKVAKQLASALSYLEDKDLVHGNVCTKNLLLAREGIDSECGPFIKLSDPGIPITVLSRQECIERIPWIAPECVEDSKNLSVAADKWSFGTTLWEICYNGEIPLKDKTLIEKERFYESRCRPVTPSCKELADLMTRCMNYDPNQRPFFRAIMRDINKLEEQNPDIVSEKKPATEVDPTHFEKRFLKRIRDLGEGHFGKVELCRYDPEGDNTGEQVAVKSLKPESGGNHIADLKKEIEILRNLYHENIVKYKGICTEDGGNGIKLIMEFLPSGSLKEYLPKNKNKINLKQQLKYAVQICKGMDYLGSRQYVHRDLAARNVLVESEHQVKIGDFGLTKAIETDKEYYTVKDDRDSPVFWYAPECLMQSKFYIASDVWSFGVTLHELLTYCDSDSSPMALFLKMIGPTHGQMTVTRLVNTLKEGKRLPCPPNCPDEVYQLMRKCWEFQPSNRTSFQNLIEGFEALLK
The entries below come with measured IC50 values attached.

{"COMPOUND": "O=S(=O)(CC[C@@H](c1ccc(-n2cc(-c3ccnc4[nH]cnc34)cn2)nc1)C(F)(F)F)C1CC1 [Example 1216]", "IC50": "< 0.1 µM"}
{"COMPOUND": "COc1cc(-n2cc(-c3ccnc4[nH]cnc34)cn2)ccc1CC#N [Example 1105]", "IC50": "> 1 µM"}
{"COMPOUND": "CC(C)[C@@H](C#N)NC(=O)n1cc(-c2ccnc3[nH]c(=O)[nH]c23)cn1 [Example 1047]", "IC50": "< 0.5 µM"}
{"COMPOUND": "CS(=O)(=O)NCC(c1ccc(-n2cc(-c3ccnc4[nH]cnc34)cn2)nc1)C(F)(F)F (stereo not shown) [Example 1209]", "IC50": "< 0.1 µM"}
{"COMPOUND": "N#CCC(NC(=O)n1cc(-c2ccnc3[nH]c(=O)[nH]c23)cn1)C(F)(F)F (stereo not shown) [Example 1050]", "IC50": "< 0.5 µM"}
{"COMPOUND": "N#C[C@H](NC(=O)n1cc(-c2ccnc3[nH]c(=O)[nH]c23)cn1)C1CC1 [Example 1054]", "IC50": "> 10 µM"}
{"COMPOUND": "CCN1CCC(C(O)(c2ccc(-n3cc(-c4ccnc5[nH]cnc45)cn3)nc2)C(F)(F)F)CC1 (stereo not shown) [Example 1221]", "IC50": "< 0.1 µM"}
{"COMPOUND": "O=C(CC(c1ccc(-n2cc(-c3ccnc4[nH]cnc34)cn2)nc1)C(F)(F)F)N1CCOCC1 (stereo not shown) [Example 1249]", "IC50": "> 0.5 µM"}
{"COMPOUND": "FC(F)(F)C(CCNC1CCCCC1)c1ccc(-n2cc(-c3ccnc4[nH]cnc34)cn2)nc1 (stereo not shown) [Example 1199]", "IC50": "< 0.1 µM"}
{"COMPOUND": "FC(F)(F)[C@@H](c1ccc(-n2cc(-c3ccnc4[nH]cnc34)cn2)nc1)C1COC1 (single isomer, unassigned) [Example 1184]", "IC50": "< 0.1 µM"}

---

Target: Recombinant JAK2 (Homo sapiens, UniProt O60674)
Construct: purchased Carna Biosciences
Sequence (O60674 whole entry): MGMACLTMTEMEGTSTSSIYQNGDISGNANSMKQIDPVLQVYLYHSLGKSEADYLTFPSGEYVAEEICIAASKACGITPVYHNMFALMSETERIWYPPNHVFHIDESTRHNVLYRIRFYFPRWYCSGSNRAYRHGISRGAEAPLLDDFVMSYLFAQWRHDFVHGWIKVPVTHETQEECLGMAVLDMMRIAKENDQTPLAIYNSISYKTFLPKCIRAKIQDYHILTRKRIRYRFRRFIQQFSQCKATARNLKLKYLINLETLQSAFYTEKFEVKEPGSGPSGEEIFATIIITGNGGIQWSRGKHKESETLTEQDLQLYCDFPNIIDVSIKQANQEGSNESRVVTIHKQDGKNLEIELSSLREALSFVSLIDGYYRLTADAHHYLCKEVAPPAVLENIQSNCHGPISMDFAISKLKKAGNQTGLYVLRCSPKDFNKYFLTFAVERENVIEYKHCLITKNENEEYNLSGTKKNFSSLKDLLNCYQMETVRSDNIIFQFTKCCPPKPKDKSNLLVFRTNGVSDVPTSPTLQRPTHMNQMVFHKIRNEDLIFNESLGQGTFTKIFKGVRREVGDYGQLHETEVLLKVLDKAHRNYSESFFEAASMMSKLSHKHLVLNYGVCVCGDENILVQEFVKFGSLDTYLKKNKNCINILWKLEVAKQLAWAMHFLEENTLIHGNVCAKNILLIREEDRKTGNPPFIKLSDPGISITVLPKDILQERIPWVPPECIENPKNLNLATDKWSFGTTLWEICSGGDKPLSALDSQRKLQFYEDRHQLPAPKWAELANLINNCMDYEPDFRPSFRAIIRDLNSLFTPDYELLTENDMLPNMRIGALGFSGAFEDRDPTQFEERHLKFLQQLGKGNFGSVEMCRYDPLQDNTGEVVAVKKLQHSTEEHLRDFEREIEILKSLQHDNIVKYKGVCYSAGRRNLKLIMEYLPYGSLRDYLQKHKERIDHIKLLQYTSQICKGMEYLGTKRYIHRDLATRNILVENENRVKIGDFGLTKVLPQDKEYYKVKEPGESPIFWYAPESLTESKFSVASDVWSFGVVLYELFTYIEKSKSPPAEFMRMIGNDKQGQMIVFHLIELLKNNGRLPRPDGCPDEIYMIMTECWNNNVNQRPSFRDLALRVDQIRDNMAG
Experiment: JAK biochemical assay (LANCE Ultra TR-FRET), JAK2
Conditions: recombinant JAK2, TR-FRET; read-out: Biochemical Assay (μM) JAK2
Method: Recombinant JAK1, JAK2, JAK3 and TYK2 (Carna Biosciences) were used to develop biochemical assays in 50 mM HEPES pH 7.5, 1 mM EGTA, 10 mM MgCl2, 2 mM DTT and 0.01% Tween-20. […] The intensity of the light emission is proportional to the level of ULight substrate phosphorylation. Compounds which interfere with JAK enzyme activity show a lesser substrate phosphorylation and values are projected in terms of % inhibition in comparison to vehicle control.
The entries below come with measured IC50 values attached.
METRIC NAME: IC50

{"COMPOUND": "CN(CCC(c1ccc(-n2cc(-c3ccnc4[nH]cnc34)cn2)nc1)C(F)(F)F)C1CC1 (stereo not drawn)", "METRIC NAME": "IC50", "RESULT": "< 0.1 µM"}
{"COMPOUND": "N#CC(C(=O)NCC(F)(F)F)c1ccc(-n2cc(-c3ccnc4[nH]cnc34)cn2)nc1 (stereo not drawn)", "METRIC NAME": "IC50", "RESULT": "> 0.5 µM"}
{"COMPOUND": "O=S(=O)(CC1CC1)CC(c1ccc(-n2cc(-c3ccnc4[nH]cnc34)cn2)nc1)C(F)(F)F (stereo not drawn)", "METRIC NAME": "IC50", "RESULT": "> 0.1 µM"}
{"COMPOUND": "N#CC1CN(C(=O)CCC(c2ccc(-n3cc(-c4ccnc5[nH]cnc45)cn3)nc2)C(F)(F)F)C1 (stereo not drawn)", "METRIC NAME": "IC50", "RESULT": "< 0.1 µM"}
{"COMPOUND": "FC(F)(F)C(CNC1CC1)c1ccc(-n2cc(-c3ccnc4[nH]cnc34)cn2)nc1 (stereo not drawn)", "METRIC NAME": "IC50", "RESULT": "< 0.1 µM"}
{"COMPOUND": "N#CC(NC(=O)n1cc(-c2ccnc3[nH]c(=O)[nH]c23)cn1)C1CCCC1 (stereo not drawn)", "METRIC NAME": "IC50", "RESULT": "> 0.5 µM"}
{"COMPOUND": "CC(C)S(=O)(=O)CCC(c1ccc(-n2cc(-c3ccnc4[nH]cnc34)cn2)nc1)C(F)(F)F (stereo not drawn)", "METRIC NAME": "IC50", "RESULT": "> 0.1 µM"}
{"COMPOUND": "O=C(NCC(F)(F)F)N1CCN(c2ccnc3[nH]c(=O)[nH]c23)CC1", "METRIC NAME": "IC50", "RESULT": "> 1 µM"}
{"COMPOUND": "N#CCCC(O)(c1ccc(-n2cc(-c3ccnc4[nH]cnc34)cn2)nc1)C(F)(F)F (stereo not drawn)", "METRIC NAME": "IC50", "RESULT": "< 0.1 µM"}
{"COMPOUND": "O=C(NCCC(c1ccc(-n2cc(-c3ccnc4[nH]cnc34)cn2)nc1)C(F)(F)F)NC1CC1 (stereo not drawn)", "METRIC NAME": "IC50", "RESULT": "< 0.1 µM"}
{"COMPOUND": "FC(F)(F)[C@H](c1ccc(-n2cc(-c3ccnc4[nH]cnc34)cn2)nc1)C1COC1 (single isomer, unassigned)", "METRIC NAME": "IC50", "RESULT": "> 0.1 µM"}
{"COMPOUND": "FC(F)(F)C(Cl)c1ccc(-n2cc(-c3ccnc4[nH]cnc34)cn2)nc1 (stereo not drawn)", "METRIC NAME": "IC50", "RESULT": "> 0.1 µM"}

Cited source: patent US12516056B2
